Entries and their measured protein stability index follow.
Assay: protein stability index of a GFP-peptide fusion (yeast GPS) (PSI 1-4); higher = more stable; sorted into four equal gates, so the index is relative within each strain
Settings: ubr1∆
assay-metric: protein stability index

residue-string	measured-value
KEALQNNIFKEFTSKIG [SMC1]	2.24
RAVANRTDATFIRVIGS [RPT1]	3.09
EWYLSHLCSGILSSVNR [SRB8]	1.63
MSSEIAYSNTNTNTENE [SNF11]	3.04
VNNCIWALKSSLNSMTN [RGR1]	2.37
PWNDDYPFLLSFLGEAK [YML103C/NUP188]	1.98
LKNKNFKCQEKDKGVYV [SIR2]	3.27
FKSLIDEDLLDTQTFSV [YGL172W/NUP49]	3.76
KRCVGVILGDANSSTIR [RPN8]	2.94
PKLKEGALHFVQQSEKL [YIL149C/MLP2]	2.88
GPKKNVFYAPNVKNYST [RPC34]	2.49
RQSSDESDNYRLLPNGS [YML031W/NDC1]	3.05
GPGGQAALRALARSGLR [RPS14B]	2.48
FLDSQRVWAEYATKRQE [PRP8]	2.07
LIQEHDSRKNREQSSND [BRN1]	3.45
KGEVYTIPLGGSVHKLP [PRE3]	3.04
ATFLKDDLPYYVNALAD [QCR2]	2.35
LLDNEIRIFRSELQRLS [RPT5]	3.03
AIMKPYYLWTGKQVFSL [RPO31]	2.72
KNVRTRIKLATTSERVS [RRI1]	2.36
LNICRQCFREKANDIGF [RPS29A]	2.86
KSLGLKLPLSVINVSAQ [RPS17A]	1.37
FREWQYFKLSITSFDQD [POP8]	2.51
TLASLIRYNSVEIQEVP [RPC82]	2.54
MEKDKLKNLLRSNFRVN [SNU114]	2.65
RFWSFMKTQRFVSNMGF [SIR4]	1.68
KSEFDDLSLNIHPIPSV [YMR129W/POM152]	2.76
ERGQKVKNVKNSDLEFN [ARP9]	1.25
QESLVKLFTTNELMRWP [RPN5]	2.91
NDAMAGGFTAYGGADYG [RPO21]	1.86
